study target: human somatostatin receptor subtype 5 (Homo sapiens, UniProt P35346)
Sequence (P35346 whole entry): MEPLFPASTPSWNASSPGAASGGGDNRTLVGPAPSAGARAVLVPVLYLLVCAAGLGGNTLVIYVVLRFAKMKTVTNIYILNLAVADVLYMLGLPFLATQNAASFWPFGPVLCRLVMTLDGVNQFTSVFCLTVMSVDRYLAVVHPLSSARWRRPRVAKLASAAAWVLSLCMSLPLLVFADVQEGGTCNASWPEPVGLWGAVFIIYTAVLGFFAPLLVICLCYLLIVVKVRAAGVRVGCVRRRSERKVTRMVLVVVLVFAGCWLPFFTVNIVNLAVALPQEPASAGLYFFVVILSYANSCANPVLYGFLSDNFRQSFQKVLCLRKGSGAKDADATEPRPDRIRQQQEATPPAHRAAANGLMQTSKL
protocol details: cAMP assay for SST5R (inhibition of cAMP via human SST5 receptor)
test settings: SST5 over SST2, class symbols

compound: CC(N)C1(C)CN(c2c(-c3cccc(F)c3)cncc2-c2nc3cc(F)cc(F)c3[nH]2)C1 (stereo not drawn)
Fold selectivity for SST5 vs SST2: +++ (+++=≥500)

compound: Cc1cc(-c2cncc(-c3nc4nccc(C)c4[nH]3)c2N2CC[C@](C)(N)C2)ccc1F
Fold selectivity for SST5 vs SST2: ++ (++=100 to 499)

compound: C[C@]1(N)CCN(c2c(-c3ccnc(C(F)(F)F)c3)cncc2-c2nc3c(F)cccc3[nH]2)C1
Fold selectivity for SST5 vs SST2: +++ (+++=≥500)

compound: Cc1ccnc2nc(-c3cncc(-c4cc(F)c(F)c(C#N)c4)c3N3CCC(C)(N)C3)[nH]c12 (stereo not drawn)
Fold selectivity for SST5 vs SST2: ++ (++=100 to 499)

compound: Cc1cccc2nc(-c3cncc(-c4ccc(F)c(OC(F)(F)F)c4)c3N3CC[C@H](N)C3)[nH]c12
Fold selectivity for SST5 vs SST2: ++ (++=100 to 499)

compound: Cc1ccnc2nc(-c3cncc(-c4cccc(Cl)c4)c3N3CC[C@](C)(N)C3)[nH]c12
Fold selectivity for SST5 vs SST2: ++ (++=100 to 499)

compound: C[C@]1(N)CCN(c2c(-c3ccnc(C#N)c3)cncc2-c2nc3cccc(Cl)c3[nH]2)C1
Fold selectivity for SST5 vs SST2: +++ (+++=≥500)

compound: CC(N)C1CN(c2c(-c3cc(F)cc(C(F)(F)F)c3)cncc2-c2nc3cc(F)cc(F)c3[nH]2)C1 (stereo not drawn)
Fold selectivity for SST5 vs SST2: +++ (+++=≥500)

compound: Cc1cc(F)cc(-c2cncc(-c3nc4cc(Cl)ccc4[nH]3)c2N2CC(CN)C2)c1
Fold selectivity for SST5 vs SST2: ++ (++=100 to 499)

compound: N#Cc1cccc(-c2cncc(-c3nc4cccc(F)c4[nH]3)c2N2CC[C@H](N)C2)c1
Fold selectivity for SST5 vs SST2: +++ (+++=≥500)

compound: CC1(N)CCN(c2c(-c3ccnc(C#N)c3)cncc2-c2nc3cccc(C(F)(F)F)c3[nH]2)C1 (stereo not drawn)
Fold selectivity for SST5 vs SST2: +++ (+++=≥500)

compound: N#Cc1cc(F)cc(-c2cncc(-c3nc4cc(F)cc(F)c4[nH]3)c2N2CC[C@H](N)C2)c1
Fold selectivity for SST5 vs SST2: +++ (+++=≥500)

compound: Cc1ccnc2[nH]c(-c3cncc(-c4ccc(F)c(C#N)c4)c3N3CC[C@](C)(N)C3)nc12
Fold selectivity for SST5 vs SST2: ++ (++=100 to 499)

compound: CCn1c(-c2cncc(-c3cc(F)cc(C#N)c3)c2N2CC[C@H](N)C2)nc2c(F)cccc21
Fold selectivity for SST5 vs SST2: +++ (+++=≥500)

compound: Cc1cccc2nc(-c3cncc(-c4cc(F)cc(C(N)=O)c4)c3N3CC[C@H](N)C3)[nH]c12
Fold selectivity for SST5 vs SST2: ++ (++=100 to 499)

* * *

study target: human somatostatin receptor subtype 5 (Homo sapiens, UniProt P35346)
protocol details: cAMP assay for SST5R (inhibition of cAMP via human SST5 receptor)
Let's look at some compounds and their measured EC50.
measured metric: EC50

compound: Cc1cccc(-c2cncc(-c3nc4cccc(C)c4[nH]3)c2N2CC[C@H](N)C2)c1
measured metric: EC50
result: < 10 nM
//
compound: Cc1cc(F)cc(-c2cncc(-c3nc4cc(F)cc(F)c4[nH]3)c2N2CC(O)(CN)C2)c1
measured metric: EC50
result: 100 to 1000 nM
//
compound: Cc1cccc2nc(-c3cncc(-c4cc(F)cc(F)c4)c3N3CC[C@H](N)C3)[nH]c12
measured metric: EC50
result: < 10 nM
//
compound: COc1cc(F)cc2nc(-c3cncc(-c4cc(C)cc(F)c4)c3N3CC(CN)C3)[nH]c12
measured metric: EC50
result: 10 to 100 nM
//
compound: Cc1cc(F)cc2[nH]c(-c3cncc(-c4ccnc(C#N)c4)c3N3CC[C@](C)(N)C3)nc12
measured metric: EC50
result: < 10 nM
//
compound: N#Cc1cccc(-c2cncc(-c3nc4c(F)cccc4[nH]3)c2N2CCC(N)(CO)C2)c1 (stereo not shown)
measured metric: EC50
result: < 10 nM
//
compound: Cn1c(-c2cncc(-c3cc(F)cc(C#N)c3)c2N2CC[C@H](N)C2)nc2cccc(Cl)c21
measured metric: EC50
result: 10 to 100 nM

* * *

study target: human somatostatin receptor subtype 5 (Homo sapiens)
protocol details: cAMP assay for SST5R (inhibition of cAMP via human SST5 receptor)
pEC50: −log10 of the molar value.
Let's look at some compounds and their measured pEC50.
measured metric: pEC50

compound: N#Cc1cc(F)cc(-c2cncc(-c3nc4cccc(F)c4[nH]3)c2N2C[C@@H](N)C[C@H]2CO)c1
measured metric: pEC50
result: < 6.00
//
compound: Cc1cnc2nc(-c3cncc(-c4ccc(F)c(C#N)c4)c3N3CC[C@](C)(N)C3)[nH]c2c1
measured metric: pEC50
result: > 8.00
//
compound: N#Cc1cc(-c2cncc(-c3nc4cccc(C(F)(F)F)c4[nH]3)c2N2CC[C@H](N)C2)ccc1F
measured metric: pEC50
result: > 8.00
//
compound: CCCn1c(-c2cncc(-c3cc(F)cc(C#N)c3)c2N2CC[C@H](N)C2)nc2ccccc21
measured metric: pEC50
result: 7.00 to 8.00
//
compound: NC(=O)c1cc(F)cc(-c2cncc(-c3nc4cccc(F)c4[nH]3)c2N2CC[C@H](N)C2)c1
measured metric: pEC50
result: > 8.00
//
compound: Cc1cccc2c1nc(-c1cncc(-c3ccnc(C#N)c3)c1N1CC[C@](C)(N)C1)n2C
measured metric: pEC50
result: > 8.00
//
compound: Cc1cc(F)cc(-c2cncc(-c3nc4cccc(Cl)c4[nH]3)c2N2CC[C@H](N)C2)c1
measured metric: pEC50
result: > 8.00
//
compound: N#Cc1c(F)ccc(-c2cncc(-c3nc4cccc(F)c4[nH]3)c2N2CC[C@H](N)C2)c1F
measured metric: pEC50
result: > 8.00
//
compound: Cc1ccc(-c2cncc(-c3nc4c(F)ccc(F)c4[nH]3)c2N2CC[C@H](N)C2)cc1C#N
measured metric: pEC50
result: > 8.00
//
compound: CC1(N)CCN(c2c(-c3cc(F)cc(Cl)c3)cncc2-c2nc3cccc(F)c3[nH]2)C1 (centres unmarked)
measured metric: pEC50
result: > 8.00
//
compound: N#Cc1cccc(-c2cncc(-c3nc4cccc(F)c4[nH]3)c2N2C[C@@H](N)[C@H](c3ccccc3)C2)c1 (racemic)
measured metric: pEC50
result: 6.00 to 7.00
//
compound: Cc1ccc(F)c2[nH]c(-c3cncc(-c4ccnc(C(N)=O)c4)c3N3CC[C@H](N)C3)nc12
measured metric: pEC50
result: < 6.00
//
compound: Cc1cc(F)cc(-c2cncc(-c3nc4cc(C#N)ccc4[nH]3)c2N2CC(CN)C2)c1
measured metric: pEC50
result: 6.00 to 7.00
//
compound: Cc1cncc(-c2cncc(-c3nc4cc(F)cc(F)c4[nH]3)c2N2CC(CN)C2)c1
measured metric: pEC50
result: 6.00 to 7.00
//
compound: Cn1c(-c2cncc(-c3cccc(C#N)c3)c2N2CC[C@H](N)C2)nc2c(Cl)cccc21
measured metric: pEC50
result: > 8.00
//
compound: Cc1ccc2nc(-c3cncc(-c4cc(F)cc(Cl)c4)c3N3CC[C@H](N)C3)[nH]c2c1
measured metric: pEC50
result: > 8.00
//
compound: C[C@]1(N)CCN(c2c(-c3ccnc(C#N)c3)cncc2-c2nc3cccc(C(F)(F)F)c3[nH]2)C1
measured metric: pEC50
result: > 8.00
//
compound: Cn1c(-c2cncc(-c3cccc(C#N)c3)c2N2CC[C@H](N)C2)nc2cccc(Cl)c21
measured metric: pEC50
result: > 8.00
//
compound: CN(C)c1ccc(-c2cncc(-c3nc4cccc(F)c4[nH]3)c2N2CCC(C)(N)C2)cn1 (centres unmarked)
measured metric: pEC50
result: 6.00 to 7.00
//
compound: COc1cc(F)cc(-c2cncc(-c3nc4cc(F)cc(F)c4[nH]3)c2N2CC(CN)C2)c1
measured metric: pEC50
result: > 8.00
//
compound: Cc1ccnc2nc(-c3cncc(-c4ccc(F)c(C(F)(F)F)c4)c3N3CC[C@](C)(N)C3)[nH]c12
measured metric: pEC50
result: > 8.00
//
compound: CCC(N)C1CN(c2c(-c3cc(C)cc(F)c3)cncc2-c2nc3cc(F)cc(F)c3[nH]2)C1 (centres unmarked)
measured metric: pEC50
result: > 8.00
//
compound: Cc1c(F)ccc2nc(-c3cncc(-c4ccnc(C#N)c4)c3N3CC[C@](C)(N)C3)[nH]c12
measured metric: pEC50
result: > 8.00
//
compound: COc1c(F)cccc1-c1cncc(-c2nc3cc(F)cc(F)c3[nH]2)c1N1CC(C(C)N)C1 (centres unmarked)
measured metric: pEC50
result: > 8.00
//
compound: N#Cc1cccc(-c2cncc(-c3nc4cccc(F)c4[nH]3)c2N2C[C@@H](N)[C@@H](O)C2)c1 (racemic)
measured metric: pEC50
result: 7.00 to 8.00
//
compound: CC1(N)CCN(c2c(-c3cc(F)cc(C(N)=O)c3)cncc2-c2nc3cccc(F)c3[nH]2)C1 (centres unmarked)
measured metric: pEC50
result: > 8.00
//
compound: Cc1ccc(F)c2[nH]c(-c3cncc(-c4cc(F)cc(C#N)c4)c3N3CC[C@H](N)C3)nc12
measured metric: pEC50
result: > 8.00
//
compound: Cn1c(-c2cncc(-c3ccnc(C#N)c3)c2N2CC[C@](C)(N)C2)nc2c(Cl)cccc21
measured metric: pEC50
result: > 8.00
//
compound: Cc1cccc2nc(-c3cncc(-c4ccc(F)c(C(N)=O)c4)c3N3CCC(C)(N)C3)[nH]c12 (centres unmarked)
measured metric: pEC50
result: > 8.00
